# test.system: His6-TEV-PDGFRβ (557-1016) (Homo sapiens (Human))
# Sequence (P09619 557-1016): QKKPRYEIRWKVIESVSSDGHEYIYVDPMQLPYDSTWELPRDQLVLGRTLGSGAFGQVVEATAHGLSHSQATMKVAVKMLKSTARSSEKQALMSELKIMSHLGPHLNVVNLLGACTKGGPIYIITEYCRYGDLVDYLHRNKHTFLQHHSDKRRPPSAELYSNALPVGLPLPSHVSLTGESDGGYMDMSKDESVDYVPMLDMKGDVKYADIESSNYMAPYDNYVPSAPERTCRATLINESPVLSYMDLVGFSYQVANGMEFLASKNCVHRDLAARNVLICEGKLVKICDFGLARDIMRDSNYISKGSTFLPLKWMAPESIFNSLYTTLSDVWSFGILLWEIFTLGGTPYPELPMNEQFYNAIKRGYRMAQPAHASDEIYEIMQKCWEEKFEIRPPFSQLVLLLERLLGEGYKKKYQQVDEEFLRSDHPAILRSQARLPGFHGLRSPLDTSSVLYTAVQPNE
The molecules listed here are annotated with their IC50.
Numeric answer only, unit nM assumed.

| molecule | unit.abbrev | IC50 |
| --- | --- | --- |
| COCCn1cc(-c2cn3ncc(C(=O)Nc4cc(NC(=O)CN5CCCC5(C)C)cnc4C)c3s2)cn1 [Example 329] | nM | 0.5 |
| Cc1ncc(C(=O)NCCN2CCCC2(C)C)cc1NC(=O)c1cnn2cc(-c3cnn(C)c3)sc12 [Example 8] | nM | 0.4 |
| Cc1ncc(NC(=O)CN2CCC[C@@H]2C)cc1NC(=O)c1cnn2cc(-c3cnn4c3COCC4)sc12 [Example 473] | nM | 0.4 |
| Cc1ncc(NC(=O)CN2CC(C)(C)C2)cc1NC(=O)c1cnn2cc(-c3cnn(CC4COC4)c3)sc12 [Example 263] | nM | 0.6 |
| Cc1cc(C(=O)NCCN2CCCC2(C)C)sc1NC(=O)c1cnn2cc(-c3ccn(C)n3)sc12 [Example 188] | nM | 9.5 |
| Cc1ncc(C(=O)NCCN2CC3CCC2CC3)cc1NC(=O)c1cnn2cc(-c3cnn(C4COC4)c3)sc12 [Example 144] | nM | 0.3 |

Field request: IC50 | item: Cc1ncc(NC(=O)CN2CCc3ccncc3C2)cc1NC(=O)c1cnn2cc(-c3cnn(C)c3)sc12 [Example 23]
0.7

Also check Cc1ncc(NC(=O)CN(C)C2CCOCC2)cc1NC(=O)c1cnn2cc(-c3cnn(CC(N)=O)c3)sc12 [Example 300]
1.2

Lookup Cc1ncc(NC(=O)CN2CC(C)(C)C2)cc1NC(=O)c1cnn2cc(-c3cnn4c3OCCC4)sc12 [Example 39]
0.3

Consider next the molecule Cc1cc(C(=O)NCCN2CC[C@H](O)C2)sc1NC(=O)c1cnn2cc(-c3cnn(C)c3)sc12 [Example 195] in the same way.
156

Same question, COCCn1cc(-c2cn3ncc(C(=O)Nc4cc(C(=O)NCCN5CC6CCC5CC6)cnc4C)c3s2)cn1 [Example 142] this time
0.5

And what about the molecule Cc1ncc(C(=O)NCCN2CC3CCC2CC3)cc1NC(=O)c1cnn2cc(-c3cnn4c3CCC4)sc12 [Example 480] ?
0.3

Check COCCn1cc(-c2cn3ncc(C(=O)Nc4cc(NC(=O)CCN5C[C@@H]6CC[C@H]5C6)cnc4C)c3s2)cn1 [Example 92] too.
0.5

Okay, and Cc1ncc(NC(=O)CCN2CC(C)(C)C2)cc1NC(=O)c1cnn2cc(-c3cnn(C)c3)sc12 [Example 96] ?
0.6

Again, but for Cc1ncc(C(=O)NCCN2CCCC2(C)C)cc1NC(=O)c1cnn2cc(-c3ccc(N)nc3)sc12 [Example 130]
0.5

###

# maps each entry to its pIC50
# test.system: PDGFRβ (Rattus norvegicus (Rat), UniProt Q05030)
# Sequence (Q05030 32-1097): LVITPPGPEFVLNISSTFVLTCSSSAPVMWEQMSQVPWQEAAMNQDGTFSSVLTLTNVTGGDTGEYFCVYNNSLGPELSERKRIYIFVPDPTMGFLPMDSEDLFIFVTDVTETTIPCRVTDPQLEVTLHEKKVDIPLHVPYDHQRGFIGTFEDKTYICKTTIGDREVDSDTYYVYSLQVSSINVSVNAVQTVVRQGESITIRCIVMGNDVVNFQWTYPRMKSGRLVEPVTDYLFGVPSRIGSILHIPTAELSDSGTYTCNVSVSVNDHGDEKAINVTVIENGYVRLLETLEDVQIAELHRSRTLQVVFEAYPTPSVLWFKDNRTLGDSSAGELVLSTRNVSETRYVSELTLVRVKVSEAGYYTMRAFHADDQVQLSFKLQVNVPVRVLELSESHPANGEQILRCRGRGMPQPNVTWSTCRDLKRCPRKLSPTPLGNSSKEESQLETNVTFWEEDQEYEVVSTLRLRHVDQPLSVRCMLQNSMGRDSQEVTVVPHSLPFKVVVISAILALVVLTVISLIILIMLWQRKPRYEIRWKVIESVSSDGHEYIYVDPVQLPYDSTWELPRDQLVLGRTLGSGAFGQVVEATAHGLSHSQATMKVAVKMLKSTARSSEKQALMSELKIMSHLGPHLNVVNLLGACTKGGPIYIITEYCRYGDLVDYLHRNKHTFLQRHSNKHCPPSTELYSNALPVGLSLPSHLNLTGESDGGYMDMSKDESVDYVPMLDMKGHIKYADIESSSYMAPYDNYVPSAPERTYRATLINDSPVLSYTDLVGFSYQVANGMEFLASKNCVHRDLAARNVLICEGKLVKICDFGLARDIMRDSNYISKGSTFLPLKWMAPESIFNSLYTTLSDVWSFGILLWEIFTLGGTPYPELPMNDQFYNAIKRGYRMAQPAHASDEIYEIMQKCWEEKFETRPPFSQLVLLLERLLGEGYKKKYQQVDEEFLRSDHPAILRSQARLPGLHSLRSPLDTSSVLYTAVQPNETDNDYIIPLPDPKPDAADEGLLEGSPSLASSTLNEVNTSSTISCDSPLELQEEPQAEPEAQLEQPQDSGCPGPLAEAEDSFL
# experimental.details: PDGFRβ Cellular Assay (PDGFRb P-Y751 HTRF in A10 cells stimulated with PDGF-BB)
# Assay type: cell-based
# details: read-out: PDGFR Cellular IC50
pIC50 field: float, defined as -log10 of concentration (mol/L).

Solved entries (count: 3):
| compound | pIC50 |
| --- | --- |
| Cc1ncc(C(=O)NCCN2CC3CCC2CC3)cc1NC(=O)c1cnn2cc(-c3ccncc3)sc12 | 7.54 |
| Cc1ncc(C(=O)NCCN2CCC(F)(F)CC2)cc1NC(=O)c1cnn2cc(-c3cnn(C)c3)sc12 | 8.31 |
| Cc1ncc(NC(=O)CN(C)C2CCOCC2)cc1NC(=O)c1cnn2cc(-c3cnn(C4CC4)c3)sc12 | 7.90 |

Dear colleague, I am looking for the recorded pIC50 of the following compound: Cc1ncc(NC(=O)OCC(C)N2CCCC2)cc1NC(=O)c1cnn2cc(-c3cnn(C)c3)sc12 (stereo not shown)
7.50

Another compound to look at: Cc1ncc(NC(=O)CN2CCC3(CC3)C2)cc1NC(=O)c1cnn2cc(-c3cnn4c3COCC4)sc12
8.41

Now try Cc1ncc(C(=O)NCCN2CC(C)(C)C2)cc1NC(=O)c1cnn2cc(-c3cnn4c3CCC4)sc12 .
7.54

Consider next the compound Cc1ncc(NC(=O)CN2CCC23CCC3)cc1NC(=O)c1cnn2cc(-c3cnn4c3COCC4)sc12 in the same way.
8.64
